test: self-splicing fitness, log relative to wild type (ln ratio); higher = more splicing; Tetrahymena group I intron in knt gene, E. coli kanamycin selection, DiMSum; sequences stand for … in CUCUCU…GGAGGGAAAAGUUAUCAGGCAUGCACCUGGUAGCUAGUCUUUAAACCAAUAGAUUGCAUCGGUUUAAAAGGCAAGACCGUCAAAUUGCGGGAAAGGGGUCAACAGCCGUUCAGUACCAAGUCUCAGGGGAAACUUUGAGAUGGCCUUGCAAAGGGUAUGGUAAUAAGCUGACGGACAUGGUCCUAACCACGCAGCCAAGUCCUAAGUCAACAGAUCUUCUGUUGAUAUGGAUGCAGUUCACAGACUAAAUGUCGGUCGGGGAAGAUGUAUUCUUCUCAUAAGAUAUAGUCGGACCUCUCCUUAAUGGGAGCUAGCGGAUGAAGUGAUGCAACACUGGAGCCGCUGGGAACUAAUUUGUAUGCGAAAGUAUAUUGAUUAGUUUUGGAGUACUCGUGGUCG; details: 37 °C;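 further: selection with 25 µg/mL kanamycin versus none on LB agar overnight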
QUANTITY_MEASURED: self-splicing fitness (ln)

CHAIN_SEQUENCE: CAUCAGCAAUAUUACGCCGG
QUANTITY_MEASURED: self-splicing fitness (ln)
MEAS_VALUE: -0.327
--
CHAIN_SEQUENCE: GUACAGCAAUAUUACGAGAG
QUANTITY_MEASURED: self-splicing fitness (ln)
MEAS_VALUE: -2.64
--
CHAIN_SEQUENCE: UGGCAGCAAUAUUACGUACA
QUANTITY_MEASURED: self-splicing fitness (ln)
MEAS_VALUE: 0.116
--
CHAIN_SEQUENCE: UACCAGCAAUAUUACGGGGA
QUANTITY_MEASURED: self-splicing fitness (ln)
MEAS_VALUE: -0.746
--
CHAIN_SEQUENCE: UCGCAGCAAUAUUACGUCUC
QUANTITY_MEASURED: self-splicing fitness (ln)
MEAS_VALUE: -1.97
--
CHAIN_SEQUENCE: AGUCAGCAAUAUUACGAUCA
QUANTITY_MEASURED: self-splicing fitness (ln)
MEAS_VALUE: 0.226
--
CHAIN_SEQUENCE: GUGGAGCAAUAUUACGACUC
QUANTITY_MEASURED: self-splicing fitness (ln)
MEAS_VALUE: -1.47
--
CHAIN_SEQUENCE: ACGUAGCAAUAUUACGCGGA
QUANTITY_MEASURED: self-splicing fitness (ln)
MEAS_VALUE: -0.895
--
CHAIN_SEQUENCE: GACGAGCAAUAUUACGGUGG
QUANTITY_MEASURED: self-splicing fitness (ln)
MEAS_VALUE: -2.77
--
CHAIN_SEQUENCE: AUGCAGCAAUAUUACGGAAG
QUANTITY_MEASURED: self-splicing fitness (ln)
MEAS_VALUE: -2.01
--
CHAIN_SEQUENCE: GGCUAGCAAUAUUACGUUCC
QUANTITY_MEASURED: self-splicing fitness (ln)
MEAS_VALUE: -0.39
--
CHAIN_SEQUENCE: CCCAAGCAAUAUUACGAAAG
QUANTITY_MEASURED: self-splicing fitness (ln)
MEAS_VALUE: -3.39
--
CHAIN_SEQUENCE: UUCAAGCAAUAUUACGUCUG
QUANTITY_MEASURED: self-splicing fitness (ln)
MEAS_VALUE: -1.46
--
CHAIN_SEQUENCE: UACUAGCAAUAUUACGGAGG
QUANTITY_MEASURED: self-splicing fitness (ln)
MEAS_VALUE: -1.28
--
CHAIN_SEQUENCE: GCGUAGCAAUAUUACGAAUC
QUANTITY_MEASURED: self-splicing fitness (ln)
MEAS_VALUE: -0.37
--
CHAIN_SEQUENCE: ACAUAGCAAUAUUACGAUUG
QUANTITY_MEASURED: self-splicing fitness (ln)
MEAS_VALUE: -0.942
--
CHAIN_SEQUENCE: CGGAAGCAAUAUUACGACUU
QUANTITY_MEASURED: self-splicing fitness (ln)
MEAS_VALUE: 0.261
--
CHAIN_SEQUENCE: CAUGAGCAAUAUUACGCCGU
QUANTITY_MEASURED: self-splicing fitness (ln)
MEAS_VALUE: -3.36
--
CHAIN_SEQUENCE: UGACAGCAAUAUUACGGGGC
QUANTITY_MEASURED: self-splicing fitness (ln)
MEAS_VALUE: -2.56
--
CHAIN_SEQUENCE: AAAUAGCAAUAUUACGCUGU
QUANTITY_MEASURED: self-splicing fitness (ln)
MEAS_VALUE: -1.89
--
CHAIN_SEQUENCE: UCUGAGCAAUAUUACGAUCU
QUANTITY_MEASURED: self-splicing fitness (ln)
MEAS_VALUE: -2.52
--
CHAIN_SEQUENCE: CAGCAGCAAUAUUACGGAAA
QUANTITY_MEASURED: self-splicing fitness (ln)
MEAS_VALUE: -2.19
--
CHAIN_SEQUENCE: CAUGAGCAAUAUUACGGUAA
QUANTITY_MEASURED: self-splicing fitness (ln)
MEAS_VALUE: -2.65
--
CHAIN_SEQUENCE: GCAGAGCAAUAUUACGCUAA
QUANTITY_MEASURED: self-splicing fitness (ln)
MEAS_VALUE: -2.95
--
CHAIN_SEQUENCE: CGUUAGCAAUAUUACGUAGA
QUANTITY_MEASURED: self-splicing fitness (ln)
MEAS_VALUE: -1.9
--
CHAIN_SEQUENCE: CGGUAGCAAUAUUACGUACA
QUANTITY_MEASURED: self-splicing fitness (ln)
MEAS_VALUE: -0.643
--
CHAIN_SEQUENCE: UUGGAGCAAUAUUACGUCUG
QUANTITY_MEASURED: self-splicing fitness (ln)
MEAS_VALUE: -0.914
--
CHAIN_SEQUENCE: CGACAGCAAUAUUACGCGUG
QUANTITY_MEASURED: self-splicing fitness (ln)
MEAS_VALUE: -1.14
--
CHAIN_SEQUENCE: GGUGAGCAAUAUUACGAAAC
QUANTITY_MEASURED: self-splicing fitness (ln)
MEAS_VALUE: -1.02
--
CHAIN_SEQUENCE: AAGGAGCAAUAUUACGGCUA
QUANTITY_MEASURED: self-splicing fitness (ln)
MEAS_VALUE: -0.126
--
CHAIN_SEQUENCE: UAUGAGCAAUAUUACGUGAG
QUANTITY_MEASURED: self-splicing fitness (ln)
MEAS_VALUE: -2.74
--
CHAIN_SEQUENCE: CGGGAGCAAUAUUACGAGGU
QUANTITY_MEASURED: self-splicing fitness (ln)
MEAS_VALUE: -2.18
--
CHAIN_SEQUENCE: GAGGAGCAAUAUUACGUGCG
QUANTITY_MEASURED: self-splicing fitness (ln)
MEAS_VALUE: -1.39
--
CHAIN_SEQUENCE: CGCAAGCAAUAUUACGAUAG
QUANTITY_MEASURED: self-splicing fitness (ln)
MEAS_VALUE: 0.36
